# TEST_NAME: NCI Yeast Anticancer Drug Screen. Data for the rad50 strain (AID 155)
# CONDITION_DESCRIPTION: S. cerevisiae rad50 strain growth inhibition; at 50.0 µM; active compounds read high
About 79,000 compounds went through this panel and 15% of them were active in at least one assay; those are over-represented in the sample as a whole.
Note to self: values exactly at 10% are Criterion met. So growth inhibition at or above 10% is Criterion met, below is Criterion not met.

Here are 3 compounds together with their reported answers.
[[record]]
compound = "C=CCOC(=O)OC(C)C(=O)OCC=C (stereo not drawn)"
category_label = "Criterion met"

[[record]]
compound = "COc1cccc(CNc2ncnc3nc[nH]c23)c1"
category_label = "Criterion met"

[[record]]
compound = "COCC/C=C\\CN(C(C)C)C(C)C"
category_label = "Criterion not met"


Incoming: Is reported growth inhibition greater than or equal to 10% here: CCCCCCCCC(=O)O (tested in a mixture with another compound)
Outgoing: Criterion not met

Incoming: Another compound to check: CC(C)C(=O)/C=C/c1ccc(Br)cc1
Outgoing: Criterion met

Incoming: Another compound to check: c1csc(-c2nccc3ccccc23)c1
Outgoing: Criterion not met

Incoming: Another compound to check: CSc1c(C)n([O-])c2ccccc2[n+]1=O
Outgoing: Criterion met
